target: human CLDN18.2 (human) (UniProt P56856); assay: cell ELISA, hCLDN18.2+ cells
Reported Emax values follow for various binders
# respond with the number and nothing more

BINDER	MEAS VALUE
Ref (control anti-human CLDN18.2 antibody) (antibody, INN chains, looked up, V domains shown) VH: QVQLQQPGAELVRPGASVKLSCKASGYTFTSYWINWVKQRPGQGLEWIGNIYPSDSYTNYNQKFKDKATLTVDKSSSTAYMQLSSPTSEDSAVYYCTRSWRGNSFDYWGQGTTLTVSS VL: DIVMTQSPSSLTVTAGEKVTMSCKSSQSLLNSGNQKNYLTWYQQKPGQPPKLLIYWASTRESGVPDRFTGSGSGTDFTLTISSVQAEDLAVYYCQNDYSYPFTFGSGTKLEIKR	1.41
Ab23 (antibody, V domains shown) VH: QVQLVQSGAEVKKPGSSVKVSCKASGYAFSNYLIEWVRQAPGQGLEWMGLINPGSGGTNYNEKFKGKVTITADKSTSTAYMELSSLRSEDTAVYYCARVYYGTSFAYWGQGTLVTVSS VL: DIVMTQSPDSLAVSLGERATINCKSSQSLLNTGNNKNYLAWYQQKPGQPPKLLIYWASTRESGVPDRFSGSGSGTDFTLTISSLQAEDVAVYYCQNDYFYPFTFGQGTKLEIK	0.147

IN: Please give the measured Emax for this binder: Ab32 (antibody, V domains shown) VH: QVQLVQSGAEVKKPGSSVKVSCKASGYAFSNYLIEWVRQAPGQGLEWMGLINPGSGGTNYNEKFKGKVTITADKSTSTAYMELSSLRSEDTAVYYCARVYYGNTFAYWGQGTLVTVSS VL: DIVMTQSPDSLAVSLGERATINCKSSQSLLNSGNNKNYLAWYQQKPGQPPKLLIYWASTRESGVPDRFSGSGSGTDFTLTISSLQAEDVAVYYCQNDYFYPFTFGQGTKLEIK
OUT: 1.41

IN: Please give the measured Emax for this binder: Ab30 (antibody, V domains shown) VH: QVQLVQSGAEVKKPGSSVKVSCKASGYAFSNYLIEWVRQAPGQGLEWMGLINPGSGGTNYNEKFKGKVTITADKSTSTAYMELSSLRSEDTAVYYCARVYYGNTFAYWGQGTLVTVSS VL: DIVMTQSPDSLAVSLGERATISCKSSQSLLNSGNQKNYLTWYQQKPGQPPKLLIYWASTRESGVPDRFSGSGSGTDFTLTISSLQAEDVAVYYCQNDYFYPFTFGQGTKLEIK
OUT: 0.67

IN: Please give the measured Emax for this binder: Ab34 (antibody, V domains shown) VH: QVQLVQSGAEVKKPGSSVKVSCKASGYAFSNYLIEWVRQAPGQGLEWMGLINPGSGGTNYNEKFKGKVTITADKSTSTAYMELSSLRSEDTAVYYCARVYYGNTFAYWGQGTLVTVSS VL: DIVMTQSPDSLAVSLGERATISCKSSQSLLNSGNNKNYLAWYQQKPGQPPKLLIYWASTRESGVPDRFSGSGSGTDFTLTISSLQAEDVAVYYCQNDYFYPFTFGQGTKLEIK
OUT: 1.42
